// reported Selectivity Index (SI) Erd/VERO per item
test system: M. Tuberculosis Erdman or H37Rv vs VERO or HepG2 cells; test: Selectivity Index (mammalian cell IC50 / bacterial MIC); set-up: species or system Mycobacterium tuberculosis
API doc: respond with a numeric literal and nothing else, no unit.

Some entries whose results are on file:
{"columns": ["compound", "reported result"],
 "data": [
  ["CN(C)CCCn1nnc(-c2ccc(-c3ccc(N4C[C@H](CO)OC4=O)cc3F)cn2)n1 [AKG-25]", 182.0],
  ["CCN(CC)CCOC[C@H]1CN(c2ccc(-c3ccc(-c4nnn(C)n4)nc3)c(F)c2)C(=O)O1 [AKG-7]", 13.0],
  ["Cl.Cn1nnc(-c2ccc(-c3ccc(N4C[C@H](CN)OC4=O)cc3F)cn2)n1 [AKG-3]", 142.4],
  ["CCN(CC)CCCn1nnc(-c2ccc(-c3ccc(N4C[C@H](CO)OC4=O)cc3F)cn2)n1 [AKG-26]", 64.3],
  ["CCN(CC)CCn1nnc(-c2ccc(-c3ccc(N4C[C@H](CO)OC4=O)cc3F)cn2)n1 [AKG-24]", 31.3]
]}

In: Param readout= Selectivity Index (SI) Erd/VERO; system= M. Tuberculosis Erdman or H37Rv vs VERO or HepG2 cells; entry= CN(C)CCCn1nnc(-c2ccc(-c3ccc(N4C[C@H](CN)OC4=O)cc3F)cn2)n1 [AKG-30] ; returns value.
Out: 884.0

The reported measurements were obtained from patent US20230348447A1.
